Recorded measurements of EC50, one per entry
system.under.test: Isoform 2 of Nuclear receptor ROR-alpha (Alpha-2) (Homo sapiens, UniProt P35398)
Sequence (P35398 whole entry): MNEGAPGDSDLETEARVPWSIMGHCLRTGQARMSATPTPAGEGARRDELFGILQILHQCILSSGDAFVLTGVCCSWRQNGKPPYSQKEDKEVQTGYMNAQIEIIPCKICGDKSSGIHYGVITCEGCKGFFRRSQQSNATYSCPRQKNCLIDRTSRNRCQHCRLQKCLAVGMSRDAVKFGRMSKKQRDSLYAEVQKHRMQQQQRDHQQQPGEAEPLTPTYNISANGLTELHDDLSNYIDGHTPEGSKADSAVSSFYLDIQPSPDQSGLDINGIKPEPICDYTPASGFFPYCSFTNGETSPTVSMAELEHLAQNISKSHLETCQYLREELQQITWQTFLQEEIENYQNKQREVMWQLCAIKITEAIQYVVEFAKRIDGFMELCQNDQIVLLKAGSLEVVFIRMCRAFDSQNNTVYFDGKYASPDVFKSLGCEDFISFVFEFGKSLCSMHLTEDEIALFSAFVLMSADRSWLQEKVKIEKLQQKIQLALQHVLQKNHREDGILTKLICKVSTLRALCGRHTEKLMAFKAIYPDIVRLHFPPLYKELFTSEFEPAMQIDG
test.method.notes: activators of RORA ligand-binding domain fusion – cell-based, CHO-K1, Gal4-RORA LBD, luciferase luminescence, counter-screen for SF-1 activator project, dose response (AID 675)
value.type: EC50 (nM)

> print(dat)
                                    compound  rel  test.result
 1        Cc1cccc(-n2ccnc2SCC(=O)Nc2nccs2)c1    >        11000
 2              O=C1CCCC(=O)C1=CNc1ccc(O)cc1    >        99000
 3  O=C(NCC1CCCO1)c1coc2nc3ccccc3nc12 (stereo unspecified)    >        99000
 4  CN(C)C=Nc1ncnc2c1cnn2-c1ccc(C(F)(F)F)cn1    >        99000
 5                 CCc1ccc(C(=O)NCc2cccs2)s1    >         3670
 6        O=C(CSc1nc2ccccc2o1)Nc1nc2ccccc2s1    >        11000
 7     CC(C)(CC(=O)O)Cc1nc(-c2ccc(Cl)cc2)no1    >        11000
 8              CCOC(=O)c1[nH]c2ccc(C)cc2c1N    =          731
 9       COc1ccc(NC(=O)c2ccc3c(c2)OCO3)cc1Cl    >        99000
10     COc1ccc(-c2nc3c(Br)c(N)c(Br)cc3o2)cc1    =          693
11               O=c1[nH]c2ccccc2nc1-c1cccs1    =         3720
12            O=C(NCc1ccco1)c1cc2c(s1)CCCCC2    >         1220
13  CCCOC(=O)c1ccc(NC(=O)C2CCCO2)cc1 (stereo unspecified)    >         3670
14                 COc1ccc(-c2cn3ccsc3n2)cc1    =          283
15      CCCn1c(C)cc(C(=O)COc2ncnc3sccc23)c1C    =         1990
16          Cc1cccnc1Nc1nc(-c2ccc(O)cc2O)cs1    =         1890
17             COC(=O)CSc1nc2cc(C)ccc2cc1C#N    >         1220
18         Nc1c(C(=O)NCc2ccco2)nnn1-c1ccccc1    >         3670
19       c1ccc(-c2cnc(CSc3nnc4ccccn34)o2)cc1    >         1220
20              CCCc1cc(C(=O)Nc2ccccc2SC)no1    =         9170
21  Cc1ccc(-n2c(C)cc(C(=O)COC(=O)c3c(C)noc3C)c2C)cc1    =         1630
22  C=CCn1c(C)cc(C(=O)CSc2nc(O)c3ccccc3n2)c1C    =          609
23  CCOC(=O)CSc1nc2ccccc2c(=O)n1NC(=O)c1ccccc1    =          933
24   Nn1c(SCC(=O)Nc2ccc(F)cc2F)nnc1-c1cccnc1    =         6790
25  CCOc1ccc(OCC)c(NC(=O)CSc2nc3c(c(=O)n(C)c(=O)n3C)n2C(C)C)c1    =          736
26        CN(C)c1ccc(NC(=O)Nc2cccc(Cl)c2)cc1    >          407
